Would you kindly list Population Hoechst High Intensity Objects (%) for each of these compounds?
- System: U2OS
- Test details: Multiplex assay against U2OS
- Type: toxicity, cell-based
- Measurement context: human, 12 h, 10 µM, compound concentration 10 uM, replicate 2
Hi! Could you send only the number? It should be in %, unit omitted.

Exercise: Using the record for `CCN1CCN(Cc2ccc(Nc3ncc(F)c(-c4cc(F)c5nc(C)n(C(C)C)c5c4)n3)nc2)CC1.CS(=O)(=O)O` , report its Population Hoechst High Intensity Objects (%).
Key: 9

Exercise: Using the record for `Cn1nc(C(=O)NCc2ccc(C(=O)O)cc2)cc1-c1ccc2[nH]ccc2c1` , report its Population Hoechst High Intensity Objects (%).
Key: 11

Exercise: Using the record for `Cc1ccc2nc(NCCN)c3ncc(C)n3c2c1.O=C(O)C(F)(F)F.O=C(O)C(F)(F)F` , report its Population Hoechst High Intensity Objects (%).
Key: 12

Exercise: Using the record for CN1C2CCC1CC(OC(c1ccc(F)cc1)c1ccc(F)cc1)C2.Cl (stereo unspecified) , report its Population Hoechst High Intensity Objects (%).
Key: 6

Exercise: Using the record for `CCOc1cc(C(=O)N2CCC(N3CCN(C)CC3)CC2)ccc1Nc1ncc2c(n1)N(C1CCCC1)c1ccccc1C(=O)N2C` , report its Population Hoechst High Intensity Objects (%).
Key: 6

Exercise: Using the record for `O=C(Nc1cccnn1)N1CCC(=Cc2cccc(Oc3ccc(C(F)(F)F)cn3)c2)CC1` , report its Population Hoechst High Intensity Objects (%).
Key: 15

Exercise: Using the record for COc1cc2ncnc(Nc3ccc(F)c(Cl)c3)c2cc1NC(=O)/C=C/CN1CCCCC1 [DACOMITINIB ANHYDROUS] , report its Population Hoechst High Intensity Objects (%).
Key: 10

Exercise: Using the record for `COC(=N)c1nc2ccc3ncnc(Nc4ccc(OC)cc4F)c3c2s1` , report its Population Hoechst High Intensity Objects (%).
Key: 13

Exercise: Using the record for `CCn1c(=O)c(-c2ccc(-c3cncs3)cc2Cl)cc2cnc(Nc3ccc(N4CCN(C)CC4)cc3)nc21` , report its Population Hoechst High Intensity Objects (%).
Key: 4

Exercise: Using the record for `Cl.Oc1ccc2c3c1O[C@H]1c4[nH]c5c(c4C[C@@]4(O)[C@@H](C2)N(CC2CC2)CC[C@]314)C[C@@]1(O)[C@H]2Cc3ccc(O)c4c3[C@@]1(CCN2CC1CC1)[C@H]5O4` , report its Population Hoechst High Intensity Objects (%).
Key: 7

Exercise: Using the record for `O=C(Nc1ccc(-c2ccnc(Nc3ccc(N4CCOCC4)cc3)n2)cc1)[C@@H]1CCCN1` , report its Population Hoechst High Intensity Objects (%).
Key: 5

Exercise: Using the record for `COc1cccc2cc(-c3nc([C@H]4CC[C@H](C(=O)O)CC4)n4ncnc(N)c34)[nH]c12` , report its Population Hoechst High Intensity Objects (%).
Key: 17

Exercise: Using the record for `Cc1ccc(C(=O)Nc2cccc(C(F)(F)F)c2)cc1Nc1nc(-c2cccnc2)nc2c1cnn2C` , report its Population Hoechst High Intensity Objects (%).
Key: 8

Exercise: Using the record for `O=C(Nc1ccc(-n2nc(-c3cccnc3)cc2C(F)(F)F)cn1)c1ccc(-c2ccccc2)c(F)c1` , report its Population Hoechst High Intensity Objects (%).
Key: 6

Exercise: Using the record for `S=C(NCCCc1c[nH]cn1)NCCCN(Cc1ccc(Cl)c(Cl)c1)c1ccc(Br)cn1` , report its Population Hoechst High Intensity Objects (%).
Key: 11

Exercise: Using the record for `CCn1cc(-c2ccnc3[nH]c(-c4cccc(CN(C)C)c4)cc23)c(-c2ccc(NC(=O)N(C)C)cc2)n1` , report its Population Hoechst High Intensity Objects (%).
Key: 16
